experimentalTarget: Beta-3 Adrenergic Receptor (Homo sapiens (Human))
assayOverview: Homogeneous Time-Resolved Fluorescence (HTRF) cAMP antagonist assay, IC50 determination
conditionNotes: CHO-K1 cells stably expressing recombinant receptor, isoproterenol at EC90
pIC50: −log10 of the molar value.
reportedMetric: pIC50

Some molecules with known pIC50 results, for comparison:
Cc1cccc2c(=O)c(S(=O)(=O)N3CCC4(CC3)C[C@@H](NC[C@H](O)COc3cccc(S(N)(=O)=O)c3)CO4)c[nH]c12 [Compound 553]    7.63
CNS(=O)(=O)c1cccc(OC[C@@H](O)CNC2COC3(CCN(S(=O)(=O)c4sc(-c5ccccc5)nc4C)CC3)C2)c1 (stereo partly drawn) [Compound 186]    7.80
CNS(=O)(=O)c1cccc(OC[C@@H](O)CN[C@@H]2COC3(CCN(S(=O)(=O)c4cccc(-c5cccnc5)c4)CC3)C2)c1 [Compound 284]    7.94

I. CNS(=O)(=O)c1cccc(OC[C@@H](O)CNC2COC3(CCN(S(=O)(=O)c4cccc(-c5ccc(NCCN6CCOCC6)nc5)c4)CC3)C2)c1 (stereo partly drawn) [Compound 371]
II. CNS(=O)(=O)c1cccc(OC[C@@H](O)CNC2COC3(CCN(S(=O)(=O)c4cccc(-c5ccnc(C)c5)c4)CC3)C2)c1 (stereo partly drawn) [Compound 107]
III. CNS(=O)(=O)c1cccc(OC[C@@H](O)CNC2COC3(CCN(S(=O)(=O)c4ccc5c(c4)N(CC(C)C)CCO5)CC3)C2)c1 (stereo partly drawn) [Compound 349]
Lookup: Sequence the entries by pIC50, beginning with the highest number. Returns: the labels arranged in the requested order.
Found: II, I, III
(II: 7.96, I: 7.38, III: 7.17)

---

experimentalTarget: UniProt:P13945
assayOverview: Homogeneous Time-Resolved Fluorescence (HTRF) cAMP antagonist assay, IC50 determination
conditionNotes: CHO-K1 cells stably expressing recombinant receptor, isoproterenol at EC90
Method: HTRF cAMP assays were performed according to manufacturer's instructions (Cisbio, cAMP Dynamic 2 Assay Kit; #62AM4PEJ). CHO-K1 cells stably expressing recombinant receptor were harvested and suspended in warm PBS to make a 300,000 cells/mL stock. […] Compounds were dissolved and serially diluted (5-fold) in DMSO to generate a 10-point dose response stock. […] The EC90 for isoproterenol, a beta-adrenergic agonist, was determined in separate experiments using standard methods to measure agonist potencies. […]
pIC50: −log10 of the molar value.
reportedMetric: pIC50

CNS(=O)(=O)c1cccc(OC[C@@H](O)CN[C@H]2COC3(CCN(S(=O)(=O)c4cnc5c(c4)N(C)CCCO5)CC3)C2)c1 [Compound 487]    7.60

P. CCn1cc(-c2cccc(S(=O)(=O)N3CCC4(CC3)C[C@@H](NC[C@H](O)COc3cccc(S(=O)(=O)NC)c3)CO4)c2)cn1 [Compound 283]
Q. CN1CCOc2ncc(S(=O)(=O)N3CCC4(CC3)C[C@@H](NC[C@H](O)COc3cccc(S(=O)(=O)N[C@H]5CCC[C@@H]5O)c3)CO4)cc21 [Compound 427]
R. CNS(=O)(=O)c1cccc(OC[C@@H](O)CNC2COC3(CCN(S(=O)(=O)c4cnn(-c5ccccc5)c4)CC3)C2)c1 (stereo partly shown) [Compound 243]
S. CCNS(=O)(=O)c1cccc(OC[C@@H](O)CNC2COC3(CCN(S(=O)(=O)c4ccc5c(c4)N(C)CCO5)CC3)C2)c1 (stereo partly shown) [Compound 234]
T. CNS(=O)(=O)c1cccc(OC[C@@H](O)CNC2COC3(CCN(S(=O)(=O)c4ccc5c(c4)N(C)CCO5)CC3)C2)c1 (stereo partly shown) [Compound 189]
Lookup: Arrange the 5 compounds from largest to smallest pIC50. // respond by listing labels in the order requested
Found: T, R, S, P, Q

a. O=S(=O)(NC1(CO)CC1)c1cccc(OC[C@@H](O)CNC2COC3(CCN(S(=O)(=O)c4ccc5ccccc5c4)CC3)C2)c1 (stereo partly shown) [Compound 99]
b. CNS(=O)(=O)c1cccc(OC[C@@H](O)CN[C@H]2COC3(CCN(S(=O)(=O)c4cnc5cc(C)ccc5c4O)CC3)C2)c1 [Compound 538]
Lookup: # returns the entry with the larger pIC50; inputs a and b Pick one and reply with its label.
Found: b
(b: 7.27, a: 6.92)

a. CCOCCNS(=O)(=O)c1cccc(OC[C@@H](O)CNC2COC3(CCN(S(=O)(=O)c4ccc5ccccc5c4)CC3)C2)c1 (stereo partly shown) [Compound 47]
b. CNS(=O)(=O)c1cccc(OC[C@@H](O)CN[C@H]2COC3(CCN(S(=O)(=O)c4cc5c(nc4N)OCCN5C)CC3)C2)c1 [Compound 455]
c. CCC(C)NS(=O)(=O)c1cccc(OC[C@@H](O)CNC2COC3(CCN(S(=O)(=O)c4ccc5ccccc5c4)CC3)C2)c1 (stereo partly shown) [Compound 10]
d. CNS(=O)(=O)c1cccc(OC[C@@H](O)CNC2COC3(CCN(S(=O)(=O)c4cccc(-c5ccc(/C(N)=N/O)cc5)c4)CC3)C2)c1 (stereo partly shown) [Compound 379]
Lookup: Kindly order the items shown according to pIC50, from the highest value down. Lab note: final answer is the ordered label list.
Found: d, b, c, a

P. CNS(=O)(=O)c1cccc(OC[C@@H](O)CNC2COC3(CCN(S(=O)(=O)c4ccc5c(c4)CC(=O)N5)CC3)C2)c1 (stereo partly shown) [Compound 182]
Q. CNS(=O)(=O)c1cccc(OC[C@@H](O)CNC2COC3(CCN(S(=O)(=O)c4ccc(-c5cccnc5)cc4)CC3)C2)c1 (stereo partly shown) [Compound 407]
Lookup: Kindly compare P with Q and tell me which has the lower pIC50 figure. # reply format: chosen label
Found: P

A. Cc1c(S(=O)(=O)N2CCC3(CC2)CC(NC[C@H](O)COc2cccc(S(=O)(=O)N(C)C)c2)CO3)cnn1-c1ccccc1 (stereo partly shown) [Compound 252]
B. CNS(=O)(=O)c1cccc(OC[C@@H](O)CNC2COC3(CCN(S(=O)(=O)c4cccc(-c5ccc(CN6CCSC6)cc5)c4)CC3)C2)c1 (stereo partly shown) [Compound 346]
Lookup: Quick one: lower pIC50, A or B ? Response format: the label of the selected entry.
Found: B
(B: 6.90, A: 7.53)

a. CCN1CCOc2ccc(S(=O)(=O)N3CCC4(CC3)C[C@@H](NC[C@H](O)COc3cccc(S(=O)(=O)NC)c3)CO4)cc21 [Compound 351]
b. CNS(=O)(=O)c1cccc(OC[C@@H](O)CNC2COC3(CCN(S(=O)(=O)c4ccc5c(c4)NCCO5)CC3)C2)c1 (stereo partly shown) [Compound 355]
Lookup: Lab notebook, comparison: a versus b , higher pIC50 goes to which? Answer = label.
Found: b

P. Cc1nc2cc(S(=O)(=O)N3CCC4(CC3)C[C@@H](NC[C@H](O)COc3cccc(S(N)(=O)=O)c3)CO4)cnc2[nH]1 [Compound 559]
Q. CNS(=O)(=O)c1cccc(OC[C@@H](O)CN[C@H]2COC3(CCN(S(=O)(=O)c4cnc5ccc(F)cc5c4O)CC3)C2)c1 [Compound 534]
R. NS(=O)(=O)c1cccc(OC[C@@H](O)CN[C@H]2COC3(CCN(S(=O)(=O)c4cccc(Cl)c4)CC3)C2)c1 [Compound 591]
Lookup: Number of compounds to sort: 3. Sort criterion: pIC50, ascending. In your reply, arrange the labels in the requested order.
Found: R, P, Q

a. CNS(=O)(=O)c1cccc(OC[C@@H](O)CN[C@H]2COC3(CCN(S(=O)(=O)c4cnc5[nH]c(=O)n(C)c5c4)CC3)C2)c1 [Compound 522]
b. CNS(=O)(=O)c1cccc(OC[C@@H](O)CN[C@H]2COC3(CCN(S(=O)(=O)c4ccc(-c5ccc(CN(C)C)cc5)cc4)CC3)C2)c1 [Compound 405]
Lookup: Hi there! Just curious which has the higher pIC50 between a and b . Label of pick, please.
Found: a
(a: 7.65, b: 7.29)

---

experimentalTarget: Beta-3 Adrenergic Receptor (Homo sapiens (Human), UniProt P13945)
Sequence (P13945 whole entry, species assumed): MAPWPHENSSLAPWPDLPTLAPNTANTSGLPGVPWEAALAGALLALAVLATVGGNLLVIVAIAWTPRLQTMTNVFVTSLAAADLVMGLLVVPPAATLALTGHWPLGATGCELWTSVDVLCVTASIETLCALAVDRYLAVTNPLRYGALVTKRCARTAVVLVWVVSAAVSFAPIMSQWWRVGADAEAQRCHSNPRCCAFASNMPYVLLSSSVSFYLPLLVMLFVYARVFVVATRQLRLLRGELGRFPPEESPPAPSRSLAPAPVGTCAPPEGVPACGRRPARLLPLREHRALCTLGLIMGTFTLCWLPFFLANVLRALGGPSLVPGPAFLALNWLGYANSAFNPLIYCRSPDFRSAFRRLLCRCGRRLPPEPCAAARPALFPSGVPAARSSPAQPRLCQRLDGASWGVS
assayOverview: Homogeneous Time-Resolved Fluorescence (HTRF) cAMP antagonist assay, IC50 determination
conditionNotes: CHO-K1 cells stably expressing recombinant receptor, isoproterenol at EC90
pIC50: −log10 of the molar value.
reportedMetric: pIC50

Some solved cases for reference:
CNS(=O)(=O)c1cccc(OC[C@@H](O)CN[C@H]2COC3(CCN(c4ncc(-c5ccccc5)cn4)CC3)C2)c1    6.58
CNS(=O)(=O)c1cccc(OC[C@@H](O)CNC2COC3(CCN(S(=O)(=O)c4cn[nH]c4)CC3)C2)c1 (stereo partly shown)    7.07
CNS(=O)(=O)c1cccc(OC[C@@H](O)CNC2COC3(CCN(S(=O)(=O)c4cccc(-c5cccc(N(C)C)c5)c4)CC3)C2)c1 (stereo partly shown)    7.00
CCc1nc2cc(S(=O)(=O)N3CCC4(CC3)C[C@@H](NC[C@H](O)COc3cccc(S(=O)(=O)NC)c3)CO4)cnc2[nH]1    7.13
CNS(=O)(=O)c1cccc(OC[C@@H](O)CN[C@@H]2COC3(CCN(S(=O)(=O)c4ccc5ncccc5c4)CC3)C2)c1    7.56
CNS(=O)(=O)c1cccc(OC[C@@H](O)CNC2COC3(CCN(S(=O)(=O)c4ccc(C)c(Br)c4)CC3)C2)c1 (stereo partly shown)    7.41
CNS(=O)(=O)c1cccc(OC[C@@H](O)CNC2COC3(CCN(S(=O)(=O)c4cccc(C)c4)CC3)C2)c1 (stereo partly shown)    7.87
CNS(=O)(=O)c1cccc(OC[C@@H](O)CNC2COC3(CCN(S(=O)(=O)c4ccc(NCCN)nc4)CC3)C2)c1 (stereo partly shown)    6.83

I. CCn1cc(-c2cccc(S(=O)(=O)N3CCC4(CC3)CC(NC[C@H](O)COc3cccc(S(=O)(=O)NC)c3)CO4)c2)cn1 (stereo partly shown)
II. CNS(=O)(=O)c1cccc(OC[C@@H](O)CNC2COC3(CCN(S(=O)(=O)c4cccnc4)CC3)C2)c1 (stereo partly shown)
Lookup: Could you point out whether the larger pIC50 belongs to I or to II ? Respond using the label that marks the chosen record.
Found: I
(I: 7.68, II: 7.11)

I. CCn1cc(-c2cccc(S(=O)(=O)N3CCC4(CC3)C[C@H](NC[C@H](O)COc3cccc(S(=O)(=O)NC)c3)CO4)c2)cn1
II. CNS(=O)(=O)c1cccc(OC[C@@H](O)CNC2COC3(CCN(S(=O)(=O)c4ccc(OC)c5nonc45)CC3)C2)c1 (stereo partly shown)
Lookup: Hello, I am sorting some records. Could you say if I or II has the smaller pIC50 value? Respond with the label that goes with your answer.
Found: II
(II: 7.54, I: 7.81)
